Cited source for all entries: paper PMC10879537

- protocol_summary: in vitro
- recorded_conditions: human, CC50, cytotoxicity to Huh 7 cells (Fig. 4B, SADS-CoV panel)
measured_endpoint: CC50

Known results for molecules:
# input Would you mind telling me what CC50 value was observed for COc1cc2c(cc1OC)[C@@H](Cc1ccc(Oc3cc(C[C@@H]4c5cc(OC)c(OC)cc5CCN4C)ccc3O)cc1)N(C)CC2 [Dauricine, dauricine] ?
# output > 12.5 µM

# input Would you mind telling me what CC50 value was observed for COc1ccc2cc1Oc1ccc(cc1)C[C@H]1c3c(cc4c(c3Oc3cc5c(cc3OC)CCN(C)[C@@H]5C2)OCO4)CCN1C [Cepharanthine, reference compound] ?
# output > 12.5 µM

# input Would you mind telling me what CC50 value was observed for COc1ccc2cc1Oc1ccc(cc1)C[C@H]1c3cc(c(OC)cc3CCN1C)Oc1c(O)c(OC)cc3c1[C@H](C2)N(C)CC3 [Fangchinoline, fangchinoline] ?
# output > 12.5 µM

# input Would you mind telling me what CC50 value was observed for COc1ccc2cc1Oc1ccc(cc1)C[C@H]1c3cc(c(OC)cc3CCN1C)Oc1c(OC)c(OC)cc3c1[C@H](C2)N(C)CC3 [Tetrandrine, reference compound] ?
# output > 12.5 µM

In the following, a different molecule is considered.
# input Would you mind telling me what CC50 value was observed for COc1cc2c3cc1Oc1c(OC)c(OC)cc4c1[C@@H](Cc1ccc(O)c(c1)Oc1ccc(cc1)C[C@@H]3N(C)CC2)N(C)CC4 [Berbamine, berbamine] ?
# output > 25 µM
